System: PK9
EXPERIMENT_SUMMARY: Induction of apoptosis in human PK9 cells assessed as accumulation at sub-G0/G1 phase at 10 uM after 72 hrs by propidium iodide staining based flow cytometry (reference value: 4%)
Assay type: functional
Each entry falls into one class according to its Activity; the ranges are low bracket (below 3%), middle bracket (3% to below 7%), high bracket (7% or more)

Look over these answered cases.
[[record]]
compound = "O[C@H]1[C@@H](O)CN[C@@H]1COCCCCCCCC/C=C/c1ccc(Oc2ccccc2)cc1"
group_label = "middle bracket"

[[record]]
compound = "CCCCCC/C=C/CCCCCCCCOC[C@H]1NC[C@H](O)[C@@H]1O"
group_label = "low bracket"

[[record]]
compound = "CCCCCCCCCCCCCCCCCCOCC(COP(=O)([O-])OCC[N+](C)(C)C)OC (stereo not given)"
group_label = "high bracket"

[[record]]
compound = "CCCCCC/C=C\\CCCCCCCCOC[C@H]1NC[C@H](O)[C@@H]1O"
group_label = "middle bracket"

[[record]]
compound = "Cl.O[C@H]1CN[C@H](COCCCCCCCCC/C=C/c2ccc(-c3ccccc3)cc2)C1"
group_label = "high bracket"

[[record]]
compound = "Cl.O[C@H]1CN[C@H](COCCCCCCCCC/C=C/c2ccc(Oc3ccccc3)cc2)C1"
group_label = "middle bracket"


Q: Place this compound in its band: CCCCCCCC/C=C\CCCCCCCCOCC[C@H]1NC[C@H](O)[C@@H]1O
Ans: low bracket

Q: Place this compound in its band: CCCCCCCCCCCCCCCCOC[C@H]1NC[C@H](O)[C@@H]1O
Ans: low bracket

Q: Place this compound in its band: Cl.O[C@H]1CN[C@H](COCCCCCC/C=C/c2ccc(-c3ccccc3)cc2)C1
Ans: high bracket
